Target: Prostacyclin Receptors (IP Receptors) of Human Thrombocyte Membranes (Homo sapiens, UniProt P43119)
Construct: Thrombocyte membranes are obtained by centrifuging 50 ml human blood; tissue Maco Pharma, Langen (buffy coats)
Sequence (P43119 whole entry): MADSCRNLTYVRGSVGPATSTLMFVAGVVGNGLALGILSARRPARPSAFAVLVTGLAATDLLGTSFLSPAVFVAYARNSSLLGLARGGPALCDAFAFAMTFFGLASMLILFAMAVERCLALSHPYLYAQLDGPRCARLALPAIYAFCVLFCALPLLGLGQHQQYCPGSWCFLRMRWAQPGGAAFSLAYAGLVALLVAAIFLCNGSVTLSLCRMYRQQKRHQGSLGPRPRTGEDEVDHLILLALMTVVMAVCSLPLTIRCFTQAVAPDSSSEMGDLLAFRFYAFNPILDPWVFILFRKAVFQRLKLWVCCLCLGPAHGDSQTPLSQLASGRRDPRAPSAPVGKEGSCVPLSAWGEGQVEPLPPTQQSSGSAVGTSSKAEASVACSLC
Experiment: Binding to prostacyclin receptors (IP receptors) of human thrombocyte membranes (3H-Iloprost displacement)
Settings: 3 nM 3H-Iloprost, 300-1000 μg/ml human thrombocyte membranes, 60 min, room temperature
Description: B-1. Studies of Binding to Prostacyclin Receptors (IP Receptors) of Human Thrombocyte Membranes Thrombocyte membranes are obtained by centrifuging 50 ml human blood (Buffy coats with CDP Stabilizer, from Maco Pharma, Langen) for 20 min at 160×g. Remove the supernatant (platelet-rich plasma, PRP) and then centrifuge again at 2000×g for 10 min at room temperature. […]
Mark 1 (yes) for IC50 under 30 nM, 0 (no) if at or over.

Use these answered entries as a reference point.
Compound	Class label
COc1ccc(-c2c(-c3ccccc3)oc3ncnc(OC[C@H](C)OCCC(=O)O)c23)cc1	1 (yes)
C=Cc1ccc(-c2c(-c3ccccc3)oc3ncnc(NCCCCCC(=O)O)c23)cc1	0 (no)
COc1ccc(-c2c(-c3ccccc3F)oc3ncnc(O[C@@H](C)CN(C)CCCC(=O)O)c23)cc1	0 (no)
CCc1ccc(-c2c(-c3ccccc3)oc3ncnc(O[C@H](C)CCOCC(=O)O)c23)cc1	1 (yes)
COc1ccc(-c2c(-c3ccccc3)oc3ncnc(OCC(C)COCC(=O)O)c23)cc1 (single isomer, unassigned; enantiomer 1)	0 (no)

API: the following record is the query input.
Data request: Given COc1ccc(-c2c(-c3ccccc3)oc3ncnc(OCC(C)(C)COCC(=O)O)c23)cc1 , is recorded IC50 strictly lower than 30 nM?
Data returned: 1 (yes)

---

Target: Prostacyclin Receptors (IP Receptors) of Human Thrombocyte Membranes (Homo sapiens, UniProt P43119)
Construct: Thrombocyte membranes are obtained by centrifuging 50 ml human blood; tissue Maco Pharma, Langen (buffy coats)
Test: Binding to prostacyclin receptors (IP receptors) of human thrombocyte membranes (3H-Iloprost displacement)
Settings: 3 nM 3H-Iloprost, 300-1000 μg/ml human thrombocyte membranes, 60 min, room temperature
Experimental: B-1. Studies of Binding to Prostacyclin Receptors (IP Receptors) of Human Thrombocyte Membranes Thrombocyte membranes are obtained by centrifuging 50 ml human blood (Buffy coats with CDP Stabilizer, from Maco Pharma, Langen) for 20 min at 160×g. Remove the supernatant (platelet-rich plasma, PRP) and then centrifuge again at 2000×g for 10 min at room temperature. […]
Assay metric: pIC50
Answers are plain numbers, as −log10 of the molar value.

Worked examples follow.
Molecule	Assay metric	Readout number
COc1ccc(-c2c(-c3ccccc3)oc3ncnc(NCCCOCCc4nnn[nH]4)c23)cc1 [Example 15]	pIC50	7.09
CCc1ccc(-c2c(-c3ccccc3F)oc3ncnc(O[C@H](C)CCCCC(=O)O)c23)cc1 [Example 142]	pIC50	8.60

Next item in the queue.
Data request: Consider the molecule COC(=O)CCCCCN(C)c1ncnc2oc(-c3ccccc3)c(-c3ccc(OC)cc3)c12 [Example 45] and give its measured pIC50.
Data returned: 6.05

---

I'd be grateful if you could share measured IC50 for these entries.
Target: Prostacyclin Receptors (IP Receptors) of Human Thrombocyte Membranes (Homo sapiens, UniProt P43119)
Construct: Thrombocyte membranes are obtained by centrifuging 50 ml human blood; tissue Maco Pharma, Langen (buffy coats)
Assay: Binding to prostacyclin receptors (IP receptors) of human thrombocyte membranes (3H-Iloprost displacement)
Settings: 3 nM 3H-Iloprost, 300-1000 μg/ml human thrombocyte membranes, 60 min, room temperature
Give bare numbers, in nM.

Worked examples follow.
Molecule	Readout number
COC(=O)CCCCC(C)Oc1ncnc2oc(-c3ccccc3)c(-c3ccc(OC)cc3)c12 (racemic) [Example 63]	37
COc1ccc(-c2c(-c3ccccc3)oc3ncnc(OC(C)CC(C)OCC(=O)O)c23)cc1 (single isomer, unassigned; enantiomer 2) [Example 146]	7
CCc1ccc(-c2c(-c3ccccc3F)oc3ncnc(OC[C@H](C)COCC(=O)O)c23)cc1 [Example 154]	3.8
CCc1ccc(-c2c(-c3ccccc3)oc3ncnc(O[C@@H](C)COCCC(=O)O)c23)cc1 [Example 85]	470
COc1ccc(-c2c(-c3ccccc3)oc3ncnc(OCCCCCc4nnn[nH]4)c23)cc1 [Example 14]	49
COc1ccc(-c2c(-c3ccccc3)oc3ncnc(OC(C)CN(C)CCCC(=O)O)c23)cc1 (racemic) [Example 92]	219

Next item in the queue.
Data request: Consider the molecule CCc1ccc(-c2c(-c3ccccc3F)oc3ncnc(OC[C@H](C)OCCC(=O)O)c23)cc1 [Example 156] and give its measured IC50.
Data returned: 13

---

Target: Prostacyclin Receptors (IP Receptors) of Human Thrombocyte Membranes (Homo sapiens)
Construct: Thrombocyte membranes are obtained by centrifuging 50 ml human blood; tissue Maco Pharma, Langen (buffy coats)
Experiment: Binding to prostacyclin receptors (IP receptors) of human thrombocyte membranes (3H-Iloprost displacement)
Settings: 3 nM 3H-Iloprost, 300-1000 μg/ml human thrombocyte membranes, 60 min, room temperature
pIC50: −log10 of the molar value.
Cut-off 7 on pIC50, inclusive. At or above means met; below means not met.

Use these answered entries as a reference point.
Molecule	Class label
COc1ccc(-c2c(-c3ccccc3)oc3ncnc(O[C@H](C)CCCCC(=O)O)c23)cc1 (single isomer, unassigned; enantiomer 2)	met
CCc1ccc(-c2c(-c3ccccc3)oc3ncnc(O[C@@H](C)CN(C)CCCC(=O)O)c23)cc1	met
COc1ccc(-c2c(-c3ccccc3)oc3ncnc(NCCCCCC(=O)O)c23)cc1	not met
COc1ccc(-c2c(-c3ccccc3)oc3ncnc(NCCCCCc4nnn[nH]4)c23)cc1	met
CCOC(=O)COC[C@@H](C)COc1ncnc2oc(-c3ccccc3F)c(-c3ccc(OC)cc3)c12	met
COC(=O)CCCCCNc1ncnc2oc(-c3ccccc3F)c(-c3ccc(OC)cc3)c12	met
COc1ccc(-c2c(-c3ccccc3C)oc3ncnc(NCCCCCC(=O)O)c23)cc1	met

API: the following record is the query input.
Data request: Is pIC50 at least 7? Consider CCc1ccc(-c2c(-c3ccccc3)oc3ncnc(NCCCCCC(=O)OC)c23)cc1
Data returned: not met

Origin of values: patent US8183246B2
